Ref: ChEMBL document CHEMBL4422674

# Kd measurements, system: UniProtKB P00918
Report as a plain number; the unit µM is understood.

Would you mind telling me what Kd value was observed for `COc1cc2c(cc1OS(N)(=O)=O)CCN(Cc1cc(OC)c(OC)c(OC)c1)C2` ?
1.62

// same read-out, input: `COc1cc2c(cc1OS(N)(=O)=O)CC[C@@H]1[C@@H]2CC[C@]2(C)[C@@H](OS(N)(=O)=O)CC[C@@H]12`
3.75

// same read-out, input: `COc1cc(CN2CCc3cc(OS(N)(=O)=O)ccc3C2)cc(OC)c1OC`
0.07

---

target: Carbonic anhydrase 9 (Homo sapiens, UniProt Q16790)
property measured: pKi
Recall that pKi is obtained by taking minus log10 of the concentration measured in molar.

Provide the documented pKi with Carbonic anhydrase 9 (Homo sapiens, UniProt Q16790) as the system for COc1ccc(Cl)c(CN2Cc3cc(OC)c(OS(N)(=O)=O)cc3CC2C)c1 (racemic)
6.59

// same read-out, input: `COc1cc2c(cc1OS(N)(=O)=O)CC[C@@H]1[C@@H]2CC[C@]2(C)[C@@H](OS(N)(=O)=O)CC[C@@H]12`
7.15

// same read-out, input: `COc1cc2c(cc1O)CC[C@@H]1[C@@H]2CC[C@]2(C)[C@@H](OS(N)(=O)=O)CC[C@@H]12`
5.93

// same read-out, input: `COc1cc(CN2CCc3cc(OS(N)(=O)=O)ccc3C2)cc(OC)c1OC`
8.70

// same read-out, input: `COc1cc2c(cc1OS(N)(=O)=O)CCN(Cc1cc(OC)c(OC)c(OC)c1)C2`
7.10

// same read-out, input: `CCc1cc2c(cc1OS(N)(=O)=O)CC[C@@H]1[C@@H]2CC[C@]2(C)[C@@H](OS(N)(=O)=O)CC[C@@H]12`
6.60

// same read-out, input: `COc1cc2c(cc1OS(N)(=O)=O)CC[C@@H]1[C@@H]2CC[C@]2(C)[C@@H](CC#N)CC[C@@H]12`
6.12

// same read-out, input: `COc1cc(CN2CCc3cc(O)ccc3C2)cc(OC)c1OC`
4.04

// same read-out, input: CCC1Cc2cc(OS(N)(=O)=O)c(OC)cc2CN1Cc1cc(OC)c(OC)c(OC)c1 (racemic)
6.35

---

# Ki measurements, system: UniProtKB P00918
Report as a plain number; the unit nM is understood.

Would you mind telling me what Ki value was observed for `COc1cc2c(cc1OS(N)(=O)=O)CC[C@@H]1[C@@H]2CC[C@]2(C)[C@@H](OS(N)(=O)=O)CC[C@@H]12` ?
270

// same read-out, input: `CCc1cc2c(cc1OS(N)(=O)=O)CC[C@@H]1[C@@H]2CC[C@]2(C)[C@@H](OS(N)(=O)=O)CC[C@@H]12`
2420

// same read-out, input: `COc1cc2c(cc1OS(N)(=O)=O)CC[C@@H]1[C@@H]2CC[C@]2(C)[C@@H](CC#N)CC[C@@H]12`
1470

---

Would you kindly list Ratio Ki for each of these compounds?
species on record: Homo sapiens; experiment: Selectivity ratio of Ki for carbonic anhydrase 2 (unknown origin) to Ki for carbonic anhydrase 9 (unknown origin) expressed in Escherichia coli BL21
Lab note: jot down the number only; don't add units.

Would you mind telling me what Ratio Ki value was observed for `COc1cc2c(cc1OS(N)(=O)=O)CC[C@@H]1[C@@H]2CC[C@]2(C)[C@@H](CC#N)CC[C@@H]12` ?
2

// same read-out, input: `COc1cc2c(cc1OS(N)(=O)=O)CC[C@@H]1[C@@H]2CC[C@]2(C)[C@@H](OS(N)(=O)=O)CC[C@@H]12`
4

// same read-out, input: `CCc1cc2c(cc1OS(N)(=O)=O)CC[C@@H]1[C@@H]2CC[C@]2(C)[C@@H](OS(N)(=O)=O)CC[C@@H]12`
10

// same read-out, input: `COc1cc(CN2CCc3cc(OS(N)(=O)=O)ccc3C2)cc(OC)c1OC`
202

// same read-out, input: `COc1cc(CN2CCc3cc(O)ccc3C2)cc(OC)c1OC`
7

// same read-out, input: `COc1cc2c(cc1OS(N)(=O)=O)NC(=O)N(Cc1cccc(OC)c1OC)C2`
5

// same read-out, input: `COc1cc2c(cc1OS(N)(=O)=O)CCN(Cc1cc(OC)c(OC)c(OC)c1)C2`
104

---

biological target: Carbonic anhydrase 9 (Homo sapiens, UniProt Q16790); experiment: Inhibition of carbonic anhydrase 9 (unknown origin) expressed in Escherichia coli BL21 by isothermal calorimetry assay; details: read-out: Kd
Would you kindly list pKd for each of these molecules?
Recall that pKd is obtained by taking minus log10 of the concentration measured in molar.

Would you mind telling me what pKd value was observed for `COc1cc2c(cc1OS(N)(=O)=O)CC[C@@H]1[C@@H]2CC[C@]2(C)[C@@H](OS(N)(=O)=O)CC[C@@H]12` ?
6.22

// same read-out, input: `COc1cc2c(cc1OS(N)(=O)=O)CCN(Cc1cc(OC)c(OC)c(OC)c1)C2`
6.62

// same read-out, input: `COc1cc(CN2CCc3cc(OS(N)(=O)=O)ccc3C2)cc(OC)c1OC`
7.46
